Target: CHOK1 cells engineered to overexpress human CCR2 (Homo sapiens, UniProt P41597)
Construct: expressed in transfected cells; host or cells: CHOK1 cells
Test: Antibody dependent cellular cytotoxicity (ADCC) reporter assay (Example 199)
Format: cell-based
Conditions: with anti-cotinine antibody SEQ ID NO: 11/12; CHOK1-human CCR2 target cells, Jurkat FcγRIIIa NFAT-luciferase reporter cells; 12-18 hours; read-out: ADCC Reporter Assay pEC50 (converted)
Can you tell me EC50 for the items I'm about to list?
Express the result in nM but write the number alone.

Query: Observed EC50 on CHOK1 cells engineered to overexpress human CCR2 (Homo sapiens, UniProt P41597) for CC(C)N(C)[C@@H]1CC[C@H](N2CC[C@H](Nc3ncnc4ccc(C(F)(F)F)cc34)C2=O)[C@H](NC(=O)C2CCN(C3CCN(C(=O)CCCCCCCNC(=O)[C@@H]4CC(=O)N(C)[C@H]4c4cccnc4)CC3)CC2)C1 , please.
Result: 2.51

Query: Record: CC(C)N(C)[C@@H]1CC[C@H](N2CC[C@H](Nc3ncnc4ccc(C(F)(F)F)cc34)C2=O)[C@H](NC(=O)CCOCCC(=O)N[C@H]2C[C@H](C(=O)NCCOCCNC(=O)[C@H]3CC(=O)N(C)[C@@H]3c3cccnc3)C2)C1
Result: 0.324

Query: Record: CC(C)N(C)[C@@H]1CC[C@H](N2CC[C@H](Nc3ncnc4ccc(C(F)(F)F)cc34)C2=O)[C@H](NC(=O)CNC(=O)[C@H]2CC[C@@H](NC(=O)COCCOCCNC(=O)[C@H]3CC(=O)N(C)[C@@H]3c3cccnc3)CC2)C1
Result: 4.91

Query: Record: CC(C)N(C)[C@@H]1CC[C@H](N2CC[C@H](Nc3ncnc4ccc(C(F)(F)F)cc34)C2=O)[C@H](NC(=O)c2cnn(C3CCN(CCOCCOCCNC(=O)[C@H]4CC(=O)N(C)[C@@H]4c4cccnc4)CC3)c2)C1
Result: 6.31

Query: Record: CC(C)N(C)[C@@H]1CC[C@H](N2CC[C@H](Nc3ncnc4ccc(C(F)(F)F)cc34)C2=O)[C@H](NC(=O)CCCC(=O)NCCCOCCCNC(=O)CCCNC(=O)[C@H]2CC(=O)N(C)[C@@H]2c2cccnc2)C1
Result: 0.794

Query: Record: CC(C)N(C)[C@@H]1CC[C@H](N2CC[C@H](Nc3ncnc4ccc(C(F)(F)F)cc34)C2=O)[C@H](NC(=O)COCCNC(=O)CNC(=O)COCCOCCNC(=O)[C@H]2CC(=O)N(C)[C@@H]2c2cccnc2)C1
Result: 5.52

Query: Record: CC(C)N(C)[C@@H]1CC[C@H](N2CC[C@H](Nc3ncnc4ccc(C(F)(F)F)cc34)C2=O)[C@H](NC(=O)[C@H]2CC[C@@H](NC(=O)COCCOCCNC(=O)CNC(=O)[C@H]3CC(=O)N(C)[C@@H]3c3cccnc3)CC2)C1
Result: 0.802

Query: Record: CC(C)N(C)[C@@H]1CC[C@H](N2CC[C@H](Nc3ncnc4ccc(C(F)(F)F)cc34)C2=O)[C@H](NC(=O)[C@H]2CC[C@@H](N3CCC(C(=O)NCCOCCOCCNC(=O)[C@H]4CC(=O)N(C)[C@@H]4c4cccnc4)C(F)(F)C3)CC2)C1 (stereo partly shown)
Result: 3.16

Query: Record: CC(C)N(C)[C@@H]1CC[C@H](N2CC[C@H](Nc3ncnc4ccc(C(F)(F)F)cc34)C2=O)[C@H](NC(=O)[C@H]2CC[C@H](NC(=O)CCCC(=O)NCCCOCCCNC(=O)[C@H]3CC(=O)N(C)[C@@H]3c3cccnc3)CC2)C1
Result: 4.9

Query: Record: CC(C)N(C)[C@@H]1CC[C@H](N2CC[C@H](Nc3ncnc4ccc(C(F)(F)F)cc34)C2=O)[C@H](NC(=O)C2CCC3(CC2)CCN(CCOCCOCCNC(=O)[C@H]2CC(=O)N(C)[C@@H]2c2cccnc2)CC3)C1
Result: 3.98

Query: Record: CC(C)N(C)[C@@H]1CC[C@H](N2CC[C@H](Nc3ncnc4ccc(C(F)(F)F)cc34)C2=O)[C@H](NC(=O)[C@H]2CC[C@@H](NC(=O)C3CCC4(CC3)CCN(CCNC(=O)[C@H]3CC(=O)N(C)[C@@H]3c3cccnc3)CC4)CC2)C1
Result: 1

Query: Record: CC(C)N(C)[C@@H]1CC[C@H](N2CC[C@H](Nc3ncnc4ccc(C(F)(F)F)cc34)C2=O)[C@H](NC(=O)CCOCCC(=O)N[C@H]2C[C@@H](C(=O)NCCOCCNC(=O)[C@H]3CC(=O)N(C)[C@@H]3c3cccnc3)C2)C1
Result: 0.151

Query: Record: CC(C)N(C)[C@@H]1CC[C@H](N2CC[C@H](Nc3ncnc4ccc(C(F)(F)F)cc34)C2=O)[C@H](NC(=O)C2CCN(c3ccc(C(=O)NCCOCCOCCNC(=O)[C@H]4CC(=O)N(C)[C@@H]4c4cccnc4)cc3)CC2)C1
Result: 0.501

Query: Record: CC(C)N(C)[C@@H]1CC[C@H](N2CC[C@H](Nc3ncnc4ccc(C(F)(F)F)cc34)C2=O)[C@H](NC2CCC(C(=O)NCCOCCOCCNC(=O)[C@H]3CC(=O)N(C)[C@@H]3c3cccnc3)CC2)C1 (stereo partly shown)
Result: 10

Query: Record: CC(C)N(C)[C@@H]1CC[C@H](N2CC[C@H](Nc3ncnc4ccc(C(F)(F)F)cc34)C2=O)[C@H](NC(=O)[C@H]2CC[C@@H](C3CCN(C(=O)CCOCCOCCNC(=O)[C@H]4CC(=O)N(C)[C@@H]4c4cccnc4)CC3)CC2)C1
Result: 7.94

Query: Record: CC(C)N(C)[C@@H]1CC[C@H](N2CC[C@H](Nc3ncnc4ccc(C(F)(F)F)cc34)C2=O)[C@H](NC(=O)CCCN2CCC3(CCN(CCCNC(=O)[C@H]4CC(=O)N(C)[C@@H]4c4cccnc4)CC3)CC2)C1
Result: 0.424

---

Can you tell me pKd of Antibody for ARM Compound of Formula (I) for the items I'm about to list?
Target: Anti-cotinine antibody (SEQ ID NO: 11 / SEQ ID NO: 12, rabbit variable region with human IgG1 Fc domain)
Test: Binding of anti-cotinine antibody to ARM compounds by SPR, Biacore T200, 37° C. (Example 202)
Conditions: pH 7.4, rabbit variable region/human IgG1 Fc antibody captured on protein A
Just the number, please, no unit after it.

Query: Form field: reported pKd of Antibody for ARM Compound of Formula (I) of CC(C)N(C)[C@@H]1CC[C@H](N2CC[C@H](Nc3ncnc4ccc(C(F)(F)F)cc34)C2=O)[C@H](NC(=O)COCCNC(=O)COCCNC(=O)CCOCCNC(=O)[C@H]2CC(=O)N(C)[C@@H]2c2cccnc2)C1 [Example 151]
Result: 9.0755

Query: Record: CC(C)N(C)[C@@H]1CC[C@H](N2CC[C@H](Nc3ncnc4ccc(C(F)(F)F)cc34)C2=O)[C@H](NC(=O)COCCNC(=O)CNC(=O)CCOCCOCCNC(=O)[C@H]2CC(=O)N(C)[C@@H]2c2cccnc2)C1 [Example 80]
Result: 9.109

Query: Record: CC(C)N(C)[C@@H]1CC[C@H](N2CC[C@H](Nc3ncnc4ccc(C(F)(F)F)cc34)C2=O)[C@H](NC(=O)CCOCCC(=O)N[C@H]2C[C@@H](C(=O)NCCOCCNC(=O)[C@H]3CC(=O)N(C)[C@@H]3c3cccnc3)C2)C1 [Example 186]
Result: 9.1435

Query: Record: CC(C)N(C)[C@@H]1CC[C@H](N2CC[C@H](Nc3ncnc4ccc(C(F)(F)F)cc34)C2=O)[C@H](NC(=O)CCOCCNC(=O)CCCO[C@H]2CC[C@H](OCCNC(=O)[C@H]3CC(=O)N(C)[C@@H]3c3cccnc3)CC2)C1 [Example 7]
Result: 9.2515

---

Target: CHOK1 cells engineered to overexpress human CCR2 (Homo sapiens)
Construct: expressed in transfected cells; host or cells: CHOK1 cells
Test: Antibody dependent cellular cytotoxicity (ADCC) reporter assay (Example 199)
Assay type: cell-based
Conditions: with anti-cotinine antibody SEQ ID NO: 11/12; CHOK1-human CCR2 target cells, Jurkat FcγRIIIa NFAT-luciferase reporter cells; 12-18 hours; read-out: ADCC Reporter Assay pEC50 (converted)
Quick rule for you: EC50 under 5 nM gets yes (1), anything else gets no (0).

Query: Could you please tell me whether EC50 recorded for CC(C)N(C)[C@@H]1CC[C@H](N2CC[C@H](Nc3ncnc4ccc(C(F)(F)F)cc34)C2=O)[C@H](NC(=O)C2CCC(N3CCC(S(=O)(=O)NCCCCCCNC(=O)[C@H]4CC(=O)N(C)[C@@H]4c4cccnc4)CC3)CC2)C1 (single isomer, unassigned) [Example 148] is less than 5 nM?
Result: yes (1)

Query: Record: CC(C)N(C)[C@@H]1CC[C@H](N2CC[C@H](Nc3ncnc4ccc(C(F)(F)F)cc34)C2=O)[C@H](NC(=O)c2ccc(OC3CCN(CCOCCOCCNC(=O)[C@H]4CC(=O)N(C)[C@@H]4c4cccnc4)CC3)cc2)C1 [Example 91]
Result: yes (1)

Query: Record: CC(C)N(C)[C@@H]1CC[C@H](N2CC[C@H](Nc3ncnc4ccc(C(F)(F)F)cc34)C2=O)[C@H](NC(=O)COCCOCCNC(=O)COCCNC(=O)CCNC(=O)[C@H]2CC(=O)N(C)[C@@H]2c2cccnc2)C1 [Example 74]
Result: no (0)

Query: Record: CC(C)N(C)[C@@H]1CC[C@H](N2CC[C@H](Nc3ncnc4ccc(C(F)(F)F)cc34)C2=O)[C@H](NC(=O)[C@H]2CC[C@H](C3CCN(CCOCCOCCNC(=O)[C@H]4CC(=O)N(C)[C@@H]4c4cccnc4)CC3)CC2)C1 [Example 189]
Result: no (0)

Query: Record: CC(C)N(C)[C@@H]1CC[C@H](N2CC[C@H](Nc3ncnc4ccc(C(F)(F)F)cc34)C2=O)[C@H](NC(=O)[C@H]2C[C@@H](NC(=O)CCCO[C@H]3CC[C@H](OCCNC(=O)[C@H]4CC(=O)N(C)[C@@H]4c4cccnc4)CC3)C2)C1 [Example 9]
Result: no (0)

Query: Record: CCN1C(=O)C[C@H](C(=O)NCCOCCOCCOCCC(=O)N[C@H]2CC[C@@H](C(=O)N[C@@H]3C[C@H](N(C)C(C)C)CC[C@@H]3N3CC[C@H](Nc4ncnc5ccc(C(F)(F)F)cc45)C3=O)CC2)[C@H]1c1cccnc1 [Example 34]
Result: yes (1)

Query: Record: CC(C)N(C)[C@@H]1CC[C@H](N2CC[C@H](Nc3ncnc4ccc(C(F)(F)F)cc34)C2=O)[C@H](NC(=O)COCCNC(=O)CCNC(=O)COCCOCCNC(=O)[C@H]2CC(=O)N(C)[C@@H]2c2cccnc2)C1 [Example 79]
Result: no (0)

Query: Record: CC(C)N(C)[C@@H]1CC[C@H](N2CC[C@H](Nc3ncnc4ccc(C(F)(F)F)cc34)C2=O)[C@H](NC(=O)COCCNC(=O)[C@H]2CC[C@@H](NC(=O)CCOCCNC(=O)[C@H]3CC(=O)N(C)[C@@H]3c3cccnc3)CC2)C1 [Example 109]
Result: yes (1)
